assay.method.text: Plasma concentration in Sprague-Dawley rat at 0.8 mg/kg, iv administered as single bolus dose after 360 mins by LC-MS/MS analysis
Type: ADME, organism-based
Positions of bridges follow the written chain, without caps; N, C: chain ends. Non-standard residues stand in square brackets, D forms with d. Residues, ends and D or L forms follow the SMILES beside them. *: point of attachment. Heptanoyl(6-Me) = CC(C)CCCCC(=O)*; X1 = CC[C@@H](C)CCCCC(=O)*; Dab = NCC[C@H](N)C(=O)O
quantity.name: concentration at 6 h (ng/mL)
Write the answer as a number in ng/mL, unit excluded.

Query string: Which measured concentration at 6 h value corresponds to CC[C@@H](C)CCCCC(=O)N[C@@H](CCN)C(=O)N[C@H](C(=O)N[C@@H](CCN)C(=O)N[C@H]1CCNC(=O)[C@H]([C@@H](C)O)NC(=O)[C@H](CCN)NC(=O)[C@H](CCN)NC(=O)[C@H](CC(C)C)NC(=O)[C@@H](Cc2ccccc2)NC(=O)[C@H](CCN)NC1=O)[C@@H](C)O (X1-[Dab]T[Dab][Dab][Dab][dF]L[Dab][Dab]T; lactam 4-C) ?
Result string: 200

# context switch: different compound, same concentration at 6 h
Query string: Which measured concentration at 6 h value corresponds to CC(C)CCCCC(=O)N[C@@H](CCN)C(=O)N[C@H](C(=O)N[C@@H](CCN)C(=O)N[C@H]1CCNC(=O)[C@H]([C@@H](C)O)NC(=O)[C@H](CCN)NC(=O)[C@H](CCN)NC(=O)[C@H](CC(C)C)NC(=O)[C@@H](Cc2ccccc2)NC(=O)[C@H](CCN)NC1=O)[C@@H](C)O [POLYMYXIN B2] ({Heptanoyl(6-Me)}-[Dab]T[Dab][Dab][Dab][dF]L[Dab][Dab]T; lactam 4-C) ?
Result string: 200
